Ref: the supplement of paper PMC3334620

Listed here: items and their measured PBM E-score.
# tgt: Ybr033w (UniProt P38073)
# Sequence: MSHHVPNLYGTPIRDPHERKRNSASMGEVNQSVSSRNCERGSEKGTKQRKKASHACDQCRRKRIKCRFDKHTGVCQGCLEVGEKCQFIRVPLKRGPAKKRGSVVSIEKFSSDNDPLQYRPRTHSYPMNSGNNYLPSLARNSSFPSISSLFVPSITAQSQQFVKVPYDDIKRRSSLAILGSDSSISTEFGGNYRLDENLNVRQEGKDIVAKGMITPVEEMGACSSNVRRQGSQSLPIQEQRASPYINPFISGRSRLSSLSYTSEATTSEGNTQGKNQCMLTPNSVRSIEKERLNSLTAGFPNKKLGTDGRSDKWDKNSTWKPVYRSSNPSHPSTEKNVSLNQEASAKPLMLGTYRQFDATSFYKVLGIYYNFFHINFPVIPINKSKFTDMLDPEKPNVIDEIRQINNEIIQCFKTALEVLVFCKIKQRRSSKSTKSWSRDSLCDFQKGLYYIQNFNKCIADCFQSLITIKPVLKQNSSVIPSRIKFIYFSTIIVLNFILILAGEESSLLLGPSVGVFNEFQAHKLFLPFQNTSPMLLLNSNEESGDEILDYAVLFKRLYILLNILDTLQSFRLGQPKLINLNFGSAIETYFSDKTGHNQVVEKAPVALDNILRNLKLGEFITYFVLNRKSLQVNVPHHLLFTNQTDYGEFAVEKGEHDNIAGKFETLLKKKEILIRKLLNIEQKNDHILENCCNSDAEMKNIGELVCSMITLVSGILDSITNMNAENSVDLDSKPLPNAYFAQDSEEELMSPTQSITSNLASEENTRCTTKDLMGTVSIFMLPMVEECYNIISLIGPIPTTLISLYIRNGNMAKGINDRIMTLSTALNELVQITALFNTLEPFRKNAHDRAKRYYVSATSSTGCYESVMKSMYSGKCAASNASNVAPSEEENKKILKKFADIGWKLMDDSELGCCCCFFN
# experiment: PBM E-score (8-mer binding enrichment) (E-score (-0.5 to 0.5)); higher = stronger / more preferred TF binding
# conditions.used: protein concentration: 200 nM; construct: GST-full length
In all, about 33,000 sequences were measured (“E-score (-0.5 to 0.5)”: median about -0.012, highest 2% from about 0.29 on). For the sample, the highest values were picked, then their nearest neighbours and some sequences at random.
Just the number, please.

| sequence.data | PBM E-score |
| --- | --- |
| GAGTTTTA | 0.146 |
| TAATTTAA | 0.343 |

## Input For the record "TTAATTAA" , what value of PBM E-score is listed for Ybr033w (UniProt P38073)?
## Output 0.241

## Input For the record "TGGATCCA" , what value of PBM E-score is listed for Ybr033w (UniProt P38073)?
## Output -0.0233

## Input For the record "CCTTGTTC" , what value of PBM E-score is listed for Ybr033w (UniProt P38073)?
## Output -0.124

## Input For the record "ATTGAAAG" , what value of PBM E-score is listed for Ybr033w (UniProt P38073)?
## Output 0.111

## Input For the record "GGAACAAC" , what value of PBM E-score is listed for Ybr033w (UniProt P38073)?
## Output 0.454

## Input For the record "ATAATTAG" , what value of PBM E-score is listed for Ybr033w (UniProt P38073)?
## Output 0.272

## Input For the record "CCGGAAGC" , what value of PBM E-score is listed for Ybr033w (UniProt P38073)?
## Output 0.0751

## Input For the record "ATTATCCG" , what value of PBM E-score is listed for Ybr033w (UniProt P38073)?
## Output 0.469

## Input For the record "CATAATTC" , what value of PBM E-score is listed for Ybr033w (UniProt P38073)?
## Output -0.00123

## Input For the record "TAACAATA" , what value of PBM E-score is listed for Ybr033w (UniProt P38073)?
## Output 0.273

## Input For the record "AGGTGGAC" , what value of PBM E-score is listed for Ybr033w (UniProt P38073)?
## Output -0.104

## Input For the record "ATAATTAC" , what value of PBM E-score is listed for Ybr033w (UniProt P38073)?
## Output 0.353

## Input For the record "ATGTGCTA" , what value of PBM E-score is listed for Ybr033w (UniProt P38073)?
## Output 0.208

## Input For the record "CAATTTAA" , what value of PBM E-score is listed for Ybr033w (UniProt P38073)?
## Output 0.27

## Input For the record "ATGATTTA" , what value of PBM E-score is listed for Ybr033w (UniProt P38073)?
## Output 0.253

## Input For the record "AAACAAAC" , what value of PBM E-score is listed for Ybr033w (UniProt P38073)?
## Output 0.229

## Input For the record "CCGGATAC" , what value of PBM E-score is listed for Ybr033w (UniProt P38073)?
## Output -0.0612

## Input For the record "GTAATTAC" , what value of PBM E-score is listed for Ybr033w (UniProt P38073)?
## Output 0.218

## Input For the record "CAGGCTGA" , what value of PBM E-score is listed for Ybr033w (UniProt P38073)?
## Output -0.237

## Input For the record "TGCATTAA" , what value of PBM E-score is listed for Ybr033w (UniProt P38073)?
## Output 0.256

## Input For the record "ACGGAAGT" , what value of PBM E-score is listed for Ybr033w (UniProt P38073)?
## Output 0.0483

## Input For the record "GAACAAAC" , what value of PBM E-score is listed for Ybr033w (UniProt P38073)?
## Output 0.345

## Input For the record "AACTAGAC" , what value of PBM E-score is listed for Ybr033w (UniProt P38073)?
## Output 0.0442

## Input For the record "CCGGATAG" , what value of PBM E-score is listed for Ybr033w (UniProt P38073)?
## Output 0.0368

## Input For the record "ATTGAGTC" , what value of PBM E-score is listed for Ybr033w (UniProt P38073)?
## Output -0.0117

## Input For the record "AATGAAAT" , what value of PBM E-score is listed for Ybr033w (UniProt P38073)?
## Output 0.282

====

Listed here: items and their measured PBM E-score.
# tgt: Ybr033w (UniProt P38073)
# Sequence: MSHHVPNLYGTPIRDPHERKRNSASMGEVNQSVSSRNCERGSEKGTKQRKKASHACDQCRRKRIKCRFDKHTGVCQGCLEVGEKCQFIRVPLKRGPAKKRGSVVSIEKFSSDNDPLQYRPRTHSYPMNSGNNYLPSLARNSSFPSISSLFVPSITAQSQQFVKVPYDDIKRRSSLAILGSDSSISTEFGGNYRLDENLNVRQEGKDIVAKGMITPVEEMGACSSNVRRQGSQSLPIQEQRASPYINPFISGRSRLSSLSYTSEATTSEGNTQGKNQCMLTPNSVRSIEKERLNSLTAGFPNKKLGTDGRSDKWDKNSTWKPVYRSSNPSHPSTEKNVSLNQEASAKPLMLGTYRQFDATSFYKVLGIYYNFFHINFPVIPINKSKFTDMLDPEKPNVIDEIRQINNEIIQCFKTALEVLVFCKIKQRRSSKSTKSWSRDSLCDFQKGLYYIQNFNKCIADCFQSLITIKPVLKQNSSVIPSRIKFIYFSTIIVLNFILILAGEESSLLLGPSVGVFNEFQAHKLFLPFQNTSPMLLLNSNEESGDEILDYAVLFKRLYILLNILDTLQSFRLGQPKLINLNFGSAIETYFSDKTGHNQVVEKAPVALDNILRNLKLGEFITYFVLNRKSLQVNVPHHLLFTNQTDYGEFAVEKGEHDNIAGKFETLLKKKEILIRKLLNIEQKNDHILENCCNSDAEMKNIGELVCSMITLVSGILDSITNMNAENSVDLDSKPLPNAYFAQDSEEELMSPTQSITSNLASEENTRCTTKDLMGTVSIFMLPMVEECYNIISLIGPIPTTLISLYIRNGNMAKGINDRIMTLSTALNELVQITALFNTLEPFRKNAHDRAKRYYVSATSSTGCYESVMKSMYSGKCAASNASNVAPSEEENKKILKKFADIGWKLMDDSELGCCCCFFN
# experiment: PBM E-score (8-mer binding enrichment) (E-score (-0.5 to 0.5)); higher = stronger / more preferred TF binding
# conditions.used: protein concentration: 200 nM; construct: GST-full length
The full ranking holds about 33,000 sequences; the median of “E-score (-0.5 to 0.5)” is about -0.012, and the highest 2% start at about 0.29. This excerpt belongs to a sample that is enriched for the highest values.
Just the number, please.

## Input # lookup: PBM E-score of "TGTGGAAA"
## Output 0.291

## Input # lookup: PBM E-score of "AGGAAAAG"
## Output 0.038

## Input # lookup: PBM E-score of "CACACTAA"
## Output 0.299

## Input # lookup: PBM E-score of "TGGAAAAA"
## Output 0.458

## Input # lookup: PBM E-score of "CTCACGGC"
## Output -0.261

## Input # lookup: PBM E-score of "TACACTAA"
## Output 0.0217

## Input # lookup: PBM E-score of "GATTTTTA"
## Output 0.209

## Input # lookup: PBM E-score of "GATATTTA"
## Output 0.338
